Catalogue of IC50 readings, one per entry.
Target: UniProtKB Q01959
Sequence (Q01959 whole entry): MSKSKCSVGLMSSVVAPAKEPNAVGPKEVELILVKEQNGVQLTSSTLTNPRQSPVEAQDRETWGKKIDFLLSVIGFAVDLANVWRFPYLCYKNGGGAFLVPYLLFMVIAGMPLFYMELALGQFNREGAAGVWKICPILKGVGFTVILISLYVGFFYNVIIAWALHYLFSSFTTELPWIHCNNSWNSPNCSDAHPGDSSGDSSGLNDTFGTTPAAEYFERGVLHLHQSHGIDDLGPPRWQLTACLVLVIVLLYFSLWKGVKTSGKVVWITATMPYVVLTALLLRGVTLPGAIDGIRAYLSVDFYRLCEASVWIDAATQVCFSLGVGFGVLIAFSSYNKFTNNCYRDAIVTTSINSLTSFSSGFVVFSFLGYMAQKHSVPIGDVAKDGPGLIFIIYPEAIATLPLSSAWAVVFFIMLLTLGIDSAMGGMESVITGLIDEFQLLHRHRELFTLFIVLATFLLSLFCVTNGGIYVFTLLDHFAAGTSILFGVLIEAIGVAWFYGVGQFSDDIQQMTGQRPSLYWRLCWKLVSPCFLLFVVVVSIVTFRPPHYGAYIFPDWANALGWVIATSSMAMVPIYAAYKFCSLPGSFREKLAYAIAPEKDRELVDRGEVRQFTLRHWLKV
Experiment: Inhibition of dopamine uptake at human DAT expressed in HEK cells
Output spec: scalar in µM, unitless text.

CNC[C@@H]1OCc2ccccc2[C@@H]1Oc1cccc(Cl)c1C ... 1.4
CNC[C@@H]1Cc2ccccc2[C@@H]1Oc1ccccc1C ... 5.3

As a next step, examine the compound that follows.
Query (compound): "CNC[C@@H]1Cc2ccccc2[C@@H]1Oc1cccc2ccccc12" ; field requested: IC50
5.7
